Entry source: paper PMC9482650

Biological target: T1, GRIP1_7, Q9Y3R0
T1 sequence (Q9Y3R0 999-1096, limits assumed, looked up): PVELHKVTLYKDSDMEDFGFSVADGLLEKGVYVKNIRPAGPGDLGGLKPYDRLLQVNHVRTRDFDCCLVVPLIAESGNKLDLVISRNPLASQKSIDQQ
Assay: holdup assay
Set-up: key: below the threshold = too weak to quantify, mostly under pKd 3.1 to 4
Conditions: plain residues with an end cap or a label only (N-terminal biotin on a linker: ahx)
QUANTITY KIND: pKd

HTHSYIETHV [CNKSR2, Q8WXI2]
below the threshold
EKQAKGDTEF [CACYBP, Q9HB71]
below the threshold
TESNLQTSSC [CGN, Q9P2M7]
below the threshold
TEAKLTETNA [MYO18A, Q92614]
below the threshold
